target: PI3Kβ (Homo sapiens); construct: His tag (pFastbac HTa vector) (N); FLAG (N); made in house; host or cells: Sf21 insect cells (baculovirus); experiment: Biochemical assay of PI3K potency and selectivity using 20 μM ATP, Beta; conditions: 20 μM ATP; ratio of IC50 values; > = hypothetical ratio with 100 μM substituted for the missing IC50
Sequence (P42338 whole entry): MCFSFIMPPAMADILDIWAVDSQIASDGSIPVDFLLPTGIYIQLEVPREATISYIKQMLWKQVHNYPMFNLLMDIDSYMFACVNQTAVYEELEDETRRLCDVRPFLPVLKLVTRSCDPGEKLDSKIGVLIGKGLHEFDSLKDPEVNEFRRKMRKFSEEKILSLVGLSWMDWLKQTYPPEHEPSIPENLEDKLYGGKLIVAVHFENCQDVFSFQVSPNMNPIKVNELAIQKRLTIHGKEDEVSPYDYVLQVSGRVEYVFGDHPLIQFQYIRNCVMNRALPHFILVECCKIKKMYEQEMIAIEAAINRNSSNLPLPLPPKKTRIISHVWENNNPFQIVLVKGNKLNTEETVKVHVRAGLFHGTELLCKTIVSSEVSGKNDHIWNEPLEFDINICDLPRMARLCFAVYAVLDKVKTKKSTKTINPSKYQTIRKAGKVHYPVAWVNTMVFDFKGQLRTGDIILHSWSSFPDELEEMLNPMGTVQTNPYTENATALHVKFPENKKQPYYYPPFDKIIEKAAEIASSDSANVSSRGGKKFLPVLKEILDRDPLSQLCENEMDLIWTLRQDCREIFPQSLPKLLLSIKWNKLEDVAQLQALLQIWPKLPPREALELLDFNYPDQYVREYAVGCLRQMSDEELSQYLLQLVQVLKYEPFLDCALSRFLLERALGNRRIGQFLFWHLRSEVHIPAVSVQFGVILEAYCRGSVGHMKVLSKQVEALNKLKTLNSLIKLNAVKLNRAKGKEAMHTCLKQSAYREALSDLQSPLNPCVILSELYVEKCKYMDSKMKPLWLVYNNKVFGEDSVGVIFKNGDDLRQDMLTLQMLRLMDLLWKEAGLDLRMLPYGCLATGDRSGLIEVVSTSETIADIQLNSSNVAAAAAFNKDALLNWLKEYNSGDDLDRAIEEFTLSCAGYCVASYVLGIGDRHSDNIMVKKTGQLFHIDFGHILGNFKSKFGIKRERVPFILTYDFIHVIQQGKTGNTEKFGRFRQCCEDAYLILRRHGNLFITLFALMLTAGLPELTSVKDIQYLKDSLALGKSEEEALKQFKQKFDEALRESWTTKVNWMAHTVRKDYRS
Sequence (P27986 whole entry partner): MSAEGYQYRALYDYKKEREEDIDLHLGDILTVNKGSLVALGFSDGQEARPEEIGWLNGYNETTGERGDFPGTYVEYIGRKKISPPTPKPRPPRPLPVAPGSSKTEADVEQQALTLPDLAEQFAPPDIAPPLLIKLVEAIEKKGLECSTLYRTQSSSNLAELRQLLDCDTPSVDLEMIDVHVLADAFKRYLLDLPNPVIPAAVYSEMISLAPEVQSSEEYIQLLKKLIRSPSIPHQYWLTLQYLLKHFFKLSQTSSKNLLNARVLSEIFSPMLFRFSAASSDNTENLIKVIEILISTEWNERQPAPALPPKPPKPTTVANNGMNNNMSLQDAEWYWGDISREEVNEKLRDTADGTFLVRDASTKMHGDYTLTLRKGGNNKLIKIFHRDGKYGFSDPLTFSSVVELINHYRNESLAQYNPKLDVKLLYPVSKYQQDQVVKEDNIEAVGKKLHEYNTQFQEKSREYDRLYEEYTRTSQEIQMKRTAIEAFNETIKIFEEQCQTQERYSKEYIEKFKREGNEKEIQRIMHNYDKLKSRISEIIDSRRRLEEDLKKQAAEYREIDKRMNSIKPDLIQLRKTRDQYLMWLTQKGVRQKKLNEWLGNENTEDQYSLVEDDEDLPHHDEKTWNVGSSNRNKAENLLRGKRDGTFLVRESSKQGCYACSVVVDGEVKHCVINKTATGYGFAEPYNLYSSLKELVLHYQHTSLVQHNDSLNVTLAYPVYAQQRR
ASSAY_ENDPOINT: Beta/Delta Ratio

Please report the recorded Beta/Delta Ratio for O=c1c2ccc([N+](=O)[O-])cc2nc(CSc2ncnc3[nH]cnc23)n1-c1ccccc1Cl . >3.9

Please report the recorded Beta/Delta Ratio for O=c1c2ccccc2nc(CSc2ncnc3[nH]cnc23)n1-c1ccccc1 . >211

Please report the recorded Beta/Delta Ratio for O=c1c2cc(Br)ccc2nc(CSc2ncnc3[nH]cnc23)n1-c1ccccc1Cl . >8
